Cited source: ChEMBL document CHEMBL4196089

Target: CYP2C9 (Homo sapiens, UniProt P11712)
Sequence (P11712 whole entry): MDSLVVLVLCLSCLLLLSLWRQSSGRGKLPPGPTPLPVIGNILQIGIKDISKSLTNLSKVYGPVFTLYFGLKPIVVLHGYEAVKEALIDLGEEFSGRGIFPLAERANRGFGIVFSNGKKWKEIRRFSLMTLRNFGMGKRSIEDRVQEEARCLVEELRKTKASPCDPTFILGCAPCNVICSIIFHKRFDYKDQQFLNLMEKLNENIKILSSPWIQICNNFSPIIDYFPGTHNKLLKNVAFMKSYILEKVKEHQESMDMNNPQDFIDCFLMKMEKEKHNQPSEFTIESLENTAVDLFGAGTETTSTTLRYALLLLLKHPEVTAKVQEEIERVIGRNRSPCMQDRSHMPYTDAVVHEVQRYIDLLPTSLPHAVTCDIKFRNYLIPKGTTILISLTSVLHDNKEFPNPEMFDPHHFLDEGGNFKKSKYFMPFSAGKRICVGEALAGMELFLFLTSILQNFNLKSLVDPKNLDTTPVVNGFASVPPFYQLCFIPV
Test: Inhibition of CYP2C9 in human liver microsomes at 10 uM after 10 mins in presence of NADPH by LC-MS/MS analysis relative to control
Assay type: ADME

testSmiles: CCCc1nn(C)c2c(=O)[nH]c(-c3cc(Cc4ccc(C(=O)NO)s4)ccc3OCC)nc12
inhibition at 10 min, 10 µM: < 50%

###

Test: cells
Settings: Homo sapiens, SH-SY5Y, 2 h, read-out: FC
experimentalEndpoint: fold induction at 0.1 µM

testSmiles: CCCc1nn(C)c2c(=O)[nH]c(-c3cc(Cc4ccc(C(=O)NO)s4)ccc3OCC)nc12
experimentalEndpoint: fold induction at 0.1 µM
experimentalValue: 1.8
//
testSmiles: CCCc1nc(C)c2c(=O)[nH]c(-c3cc(-c4ccc(C(=O)NO)cc4)ccc3OCC)nn12
experimentalEndpoint: fold induction at 0.1 µM
experimentalValue: 1.3
//
testSmiles: CCCc1nn(C)c2c(=O)[nH]c(-c3cc(-c4ccc(CC(=O)NO)cc4)ccc3OCC)nc12
experimentalEndpoint: fold induction at 0.1 µM
experimentalValue: 0.6
//
testSmiles: CCCc1nn(C)c2c(=O)[nH]c(-c3cc(Cc4ccc(C(=O)NO)cc4)ccc3OCC)nc12
experimentalEndpoint: fold induction at 0.1 µM
experimentalValue: 1.1
//
testSmiles: CCCc1nn(C)c2c(=O)[nH]c(-c3cc(Cc4ccc(C(=O)NO)c(F)c4)ccc3OCC)nc12
experimentalEndpoint: fold induction at 0.1 µM
experimentalValue: 2
//
testSmiles: CCCc1nn(C)c2c(=O)[nH]c(-c3cc(-c4ccc(C(=O)NO)cc4)ccc3OCC)nc12
experimentalEndpoint: fold induction at 0.1 µM
experimentalValue: 0.8

###

Target: Histone deacetylase 2 (Homo sapiens, UniProt Q92769)
Sequence (Q92769 whole entry): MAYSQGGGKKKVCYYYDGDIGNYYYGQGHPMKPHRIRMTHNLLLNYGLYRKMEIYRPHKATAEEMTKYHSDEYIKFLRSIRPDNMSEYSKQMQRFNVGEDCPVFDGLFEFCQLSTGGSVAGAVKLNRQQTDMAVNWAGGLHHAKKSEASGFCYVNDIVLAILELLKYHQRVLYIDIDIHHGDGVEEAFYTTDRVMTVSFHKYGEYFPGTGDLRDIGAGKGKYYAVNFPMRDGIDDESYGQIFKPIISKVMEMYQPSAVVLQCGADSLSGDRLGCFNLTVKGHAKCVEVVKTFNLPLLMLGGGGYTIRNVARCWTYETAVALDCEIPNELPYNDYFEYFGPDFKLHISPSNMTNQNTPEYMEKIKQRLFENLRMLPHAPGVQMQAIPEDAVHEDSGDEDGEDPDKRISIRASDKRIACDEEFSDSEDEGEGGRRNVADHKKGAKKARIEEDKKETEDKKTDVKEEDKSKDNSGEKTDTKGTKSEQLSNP
Format: ADME

molecule: CCCc1nc(C)c2c(=O)[nH]c(-c3cc(CC4CC(C(=O)NO)C4)ccc3OCC)nn12 (stereo unspecified)
IC50: 1260 nM

###

Biological target: cGMP-specific 3',5'-cyclic phosphodiesterase (Homo sapiens, UniProt O76074)
Assay: Inhibition of full length human recombinant N-terminal GST-tagged PDE5A1 expressed in baculovirus infected sf9 cells using cGMP as substrate after 30 mins by fluorescence assay

molecule: CCCc1nc(C)c2c(=O)[nH]c(-c3cc(-c4ccc(C(=O)NO)cc4)ccc3OCC)nn12
IC50 (nM): 2
--
molecule: CCCc1nn(C)c2c(=O)[nH]c(-c3cc(C(=O)c4ccc(C(=O)NO)s4)ccc3OCC)nc12
IC50 (nM): 3
--
molecule: CCCc1nn(C)c2c(=O)[nH]c(-c3cc(C4CCC(C(=O)NO)CC4)ccc3OCC)nc12 (configuration not stated)
IC50 (nM): 146
--
molecule: CCCc1nc(C)c2c(=O)[nH]c(-c3cc(Cc4ccc(C(=O)NO)s4)ccc3OCC)nn12
IC50 (nM): 3
--
molecule: CCCc1nn(C)c2c(=O)[nH]c(-c3cc(Cc4ccc(C(=O)NO)c(OC)c4)ccc3OCC)nc12
IC50 (nM): 144
--
molecule: CCCc1nn(C)c2c(=O)[nH]c(-c3cc(C4=CCC(C(=O)NO)CC4)ccc3OCC)nc12 (configuration not stated)
IC50 (nM): 27
--
molecule: CCCc1nc(C)c2c(=O)[nH]c(-c3cc(Cc4ccc(C(=O)NO)cc4)ccc3OCC)nn12
IC50 (nM): 13
